biological target: α1β2γ2 GABAARs (Rattus norvegicus, UniProt P18508+P62813); assay: Whole-cell patch-clamp, potentiation of GABA
Sequence (P62813 28-455, one chain of several): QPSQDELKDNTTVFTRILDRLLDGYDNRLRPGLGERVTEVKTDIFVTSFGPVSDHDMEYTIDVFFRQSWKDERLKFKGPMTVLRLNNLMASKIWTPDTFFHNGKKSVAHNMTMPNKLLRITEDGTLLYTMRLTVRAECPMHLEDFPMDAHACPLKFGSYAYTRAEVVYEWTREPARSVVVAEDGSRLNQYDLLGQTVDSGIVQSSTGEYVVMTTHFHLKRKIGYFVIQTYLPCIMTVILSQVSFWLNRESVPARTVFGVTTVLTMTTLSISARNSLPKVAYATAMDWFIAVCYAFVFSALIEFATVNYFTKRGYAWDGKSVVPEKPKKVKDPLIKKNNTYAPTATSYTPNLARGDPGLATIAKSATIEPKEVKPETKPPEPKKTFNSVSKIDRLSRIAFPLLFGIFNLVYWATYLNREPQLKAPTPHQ
OBSERVED PROPERTY: pEC50
pEC50 (log units): -log10 of the concentration in mol/L.

[ask] Look up pEC50 for this compound: `CN1C(=O)CC(=O)N(c2ccccc2)c2cc(Cl)ccc21`
[reply] 6.21

----------
target: α3β3γ2 GABAARs (Rattus norvegicus, UniProt P18508+P20236); test: Whole-cell patch-clamp, potentiation of GABA
Sequence (P20236 29-493, one chain of several): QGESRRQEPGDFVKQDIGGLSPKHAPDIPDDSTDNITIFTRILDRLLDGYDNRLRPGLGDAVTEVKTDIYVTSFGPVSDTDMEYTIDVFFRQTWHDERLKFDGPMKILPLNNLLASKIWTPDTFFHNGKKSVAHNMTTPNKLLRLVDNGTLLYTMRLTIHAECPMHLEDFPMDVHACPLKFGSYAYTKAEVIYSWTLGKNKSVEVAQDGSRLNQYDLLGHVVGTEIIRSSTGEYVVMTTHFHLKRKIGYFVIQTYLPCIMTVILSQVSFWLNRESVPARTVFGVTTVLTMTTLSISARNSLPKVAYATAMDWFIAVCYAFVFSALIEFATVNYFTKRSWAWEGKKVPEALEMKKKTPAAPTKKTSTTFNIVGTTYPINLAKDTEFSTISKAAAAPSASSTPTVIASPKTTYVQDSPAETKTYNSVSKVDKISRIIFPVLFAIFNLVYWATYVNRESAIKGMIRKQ
Sequence (P63079 26-473 partner, one chain of several): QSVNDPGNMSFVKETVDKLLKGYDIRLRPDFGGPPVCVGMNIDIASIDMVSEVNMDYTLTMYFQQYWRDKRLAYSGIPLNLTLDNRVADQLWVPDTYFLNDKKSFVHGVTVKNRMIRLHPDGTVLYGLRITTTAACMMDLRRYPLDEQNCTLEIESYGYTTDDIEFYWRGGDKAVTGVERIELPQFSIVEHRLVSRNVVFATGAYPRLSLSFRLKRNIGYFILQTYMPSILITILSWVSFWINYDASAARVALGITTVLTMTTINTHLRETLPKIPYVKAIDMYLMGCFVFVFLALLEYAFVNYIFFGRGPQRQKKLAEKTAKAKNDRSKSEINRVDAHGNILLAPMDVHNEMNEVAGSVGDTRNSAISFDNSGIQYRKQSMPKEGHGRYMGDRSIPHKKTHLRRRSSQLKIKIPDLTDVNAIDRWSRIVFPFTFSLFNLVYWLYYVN
OBSERVED PROPERTY: pEC50
Keep it numeric: pEC50 is minus log10 of the concentration in mol/L.

[ask] Give the reported pEC50 for `CN1C(=O)CC(=O)N(c2ccccc2)c2cc(Cl)ccc21` (system: α3β3γ2 GABAARs (Rattus norvegicus, UniProt P18508+P20236)).
[reply] 5.96

----------
molecular target: α5β2γ2 GABAARs (Rattus norvegicus, UniProt P18508+P19969); test: Whole-cell patch-clamp, potentiation of GABA; format: cell-based
Sequence (P19969 32-464 limits assumed): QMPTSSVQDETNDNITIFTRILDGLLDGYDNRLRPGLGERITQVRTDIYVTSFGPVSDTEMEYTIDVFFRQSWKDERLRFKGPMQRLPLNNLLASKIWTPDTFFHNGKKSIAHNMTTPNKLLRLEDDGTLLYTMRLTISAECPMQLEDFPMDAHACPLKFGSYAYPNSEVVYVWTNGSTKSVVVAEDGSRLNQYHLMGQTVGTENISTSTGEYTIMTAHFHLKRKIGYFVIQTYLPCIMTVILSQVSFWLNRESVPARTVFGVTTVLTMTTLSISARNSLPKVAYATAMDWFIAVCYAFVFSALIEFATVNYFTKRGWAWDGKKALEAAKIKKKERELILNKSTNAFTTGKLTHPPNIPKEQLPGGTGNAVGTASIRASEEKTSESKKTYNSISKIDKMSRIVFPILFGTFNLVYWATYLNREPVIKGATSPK
Sequence (P63138 25-474 partner limits assumed): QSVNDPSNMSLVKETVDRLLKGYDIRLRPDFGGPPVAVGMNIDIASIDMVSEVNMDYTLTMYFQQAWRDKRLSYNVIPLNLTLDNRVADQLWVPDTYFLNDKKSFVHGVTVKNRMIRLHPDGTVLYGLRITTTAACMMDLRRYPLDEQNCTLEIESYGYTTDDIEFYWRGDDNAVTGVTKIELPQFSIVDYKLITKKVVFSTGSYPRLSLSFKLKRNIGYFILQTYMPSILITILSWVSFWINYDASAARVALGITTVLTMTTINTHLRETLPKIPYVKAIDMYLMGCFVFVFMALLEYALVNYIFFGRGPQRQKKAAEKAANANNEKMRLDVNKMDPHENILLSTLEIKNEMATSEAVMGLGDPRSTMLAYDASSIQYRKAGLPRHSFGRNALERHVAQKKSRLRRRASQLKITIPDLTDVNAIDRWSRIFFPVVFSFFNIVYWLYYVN
Sequence (P18508 39-466): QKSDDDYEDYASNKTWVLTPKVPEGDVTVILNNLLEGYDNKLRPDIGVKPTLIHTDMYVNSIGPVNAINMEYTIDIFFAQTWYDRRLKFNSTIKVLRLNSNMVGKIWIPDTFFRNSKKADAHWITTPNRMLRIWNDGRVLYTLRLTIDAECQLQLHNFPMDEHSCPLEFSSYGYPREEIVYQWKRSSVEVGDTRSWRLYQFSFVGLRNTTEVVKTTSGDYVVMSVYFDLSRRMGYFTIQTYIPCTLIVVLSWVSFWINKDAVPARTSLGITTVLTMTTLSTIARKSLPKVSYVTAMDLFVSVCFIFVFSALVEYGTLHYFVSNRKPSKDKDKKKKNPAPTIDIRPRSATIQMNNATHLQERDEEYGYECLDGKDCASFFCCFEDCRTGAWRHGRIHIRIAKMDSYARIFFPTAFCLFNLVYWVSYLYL
OBSERVED PROPERTY: EC50 (nM)
Give your result in nM as a bare value.

[ask] Form field - read-out: EC50; system: α5β2γ2 GABAARs (Rattus norvegicus, UniProt P18508+P19969); submitted item: `CN1C(=O)CC(=O)N(c2ccccc2)c2cc(Cl)ccc21`
[reply] 500

----------
biological target: α1β2γ2 GABAARs (Rattus norvegicus, UniProt P18508+P62813); test: [3H]flunitrazepam binding to membranes of transfected HEK293 cells, α1β2γ2
OBSERVED PROPERTY: pIC50
Lab note: report pIC50 as minus log10 of the concentration in molar units, number only.

[ask] Reported pIC50, molecule CN1C(=O)CC(=O)N(c2ccccc2)c2cc(Cl)ccc21 [CBZ, clobazam] : ____
[reply] 6.37
